All values here come from ChEMBL document CHEMBL4406812.

Test system: NCI-H460
protocol: Anticancer activity against human NCI-H460 cells
Assay type: functional, cell-based
pIC50: −log10 of the molar value.
measured property: pIC50

Recorded pIC50 for Cc1cc(C)n2c1C(c1ccc(OCc3cn(C4C5=C(OC4(C)C)c4ccccc4C(=O)C5=O)nn3)cc1)=C1C=CC=[N+]1[B-]2(F)F (stereo unspecified) with NCI-H460, please?
5.66 to 6.47

* * *

Test system: MDA-MB-435
protocol: Cytotoxicity against human MDA-MB-435 cells assessed as reduction in cell viability after 48 hrs
Type: functional, cell-based
condition parameters: MDA-MB-435, 48 h
measured property: IC50

Would you mind telling me what IC50 value was observed for CC1(C)OC2=C(C(=O)C(=O)c3ccccc32)C1Nc1cccc(-c2cn(C[Se]c3ccccc3)nn2)c1 (stereo unspecified) ?
< 100 nM
